Measured values drawn from the supplement of paper PMC9170038 for this set.

Tested on: MS2 coat protein
method: apparent KD of MS2 coat protein, switch OFF state (with FMN for OFF switches, without FMN for ON switches); designed switch direction (-1 OFF switch, 1 ON switch): 1; higher = weaker reporter binding
assay_context: FMN input: 0 or 200 uM; Eterna round: R93 (includes R88 designs)
quantity: apparent KD of MS2 coat protein (nM)

sequence	quantity	result
AAAAAACAUGAGGAUCACCCAUGUAAAAAUAUGGGAGGAUAUACAAACACGAAAGUGAAAGUAGAAGGCCUAAAAA [SS! MT 17]	apparent KD of MS2 coat protein	85.3
AAAAGACAUGAGGAUCACCCAUGUGAAAACGUGCGAGGAUAUGUAUGGAAACUAUACUGUACAGAAGGCGCAUGUC [SS1 - 81]	apparent KD of MS2 coat protein	24.3
CAGGACAUAGGAUAGGAUAUAUGAAUAAUUACAUGAGGAUCACCCAUGUCCAUUUAUAUGGGAACAUAGAAGGGUUGUAGUUAUG [Mat - Same state - Malcolm Mod - D143]	apparent KD of MS2 coat protein	388
AUAAAACAUGAGGAUCACCCAUGUCCGACAAAUCAAGGAUAUGAUAGCCAAACCAGGCCGUUAGAAGGUGAAAGAA [Edgeza]	apparent KD of MS2 coat protein	147
AAAGACAUAGUUCAGGAUAUGGUAAUAGUCACAUGAGGAUCACCCAUGUGCAUUUAUAUGCGCGAUCAGAAGGGAGGUAAAAAAA [SameState2 Malc#16]	apparent KD of MS2 coat protein	21.9
AUAAAACAUGAGGAUCACCCAUGUAAAAAUAUGGGAGGAUAUACGAAAUAAAAUAAAUACGUAGAAGGCCUAAAAA [SS! MT 20]	apparent KD of MS2 coat protein	111
AGAAAACAUGAGGAUCACCCAUGUAGAAAUAUGGGAGGAUAUACAAAGACGAAAGUCAGAGUAGAAGGCCUAAAAA [salish99-SS1-085]	apparent KD of MS2 coat protein	77.3
GAAAUACAUGAGGAUCACCCAUGUUAGGUGGGUCAAGGAUAUUGAUAUAAAUAAAAAACUCGAGAAGGUGAAUAAA [JR_SS001_Sub201]	apparent KD of MS2 coat protein	179
AAUAGACAUGAGGAUCACCCAUGUGUAUAUGGGAGAGGAUAUACGGGACACAAGGGCGGAGUAGAAGGCUCGAGAC [Same Satate 1]	apparent KD of MS2 coat protein	83.9
AAAUAAAGAUACUAGGAUAUCCCGUGAGGUACAUGAGGAUCACCCAUGUGUAACGAACUCCCGCGGGAGAAGGAGUUGCACACGA [Inanuserra]	apparent KD of MS2 coat protein	52.4
CCGAUACAUGAGGAUCACCCAUGUUAGGUAGAACAAGGAUAUCUAGAUAGAUAAAAAUAUAGAGAAGGUGUAUAAC [JR_SS001_Sub208]	apparent KD of MS2 coat protein	26
AAUAUAUUAUUUAAGGAUAUCAUAGGAAAAACAUGAGGAUCACCCAUGUGGGAAACCUGGUCGGGUGAGAAGGUGGAUAAUAUAU [Samwise Clockwise 34 - Jieux - Same State 2]	apparent KD of MS2 coat protein	317
AAAAAACAUGAGGAUCACCCAUGUCUUCGGACGUGAGGAUAUGUACAGACUUCGGUCUGUACAGAAGGCACGAAAA [SS1 - 1035]	apparent KD of MS2 coat protein	114
